# experimental details: Loss of metabolic stability in Sprague-Dawley rat hepatocytes after 1 hr at 1 uM
# Format: ADME, cell-based, Hepatocyte
# test conditions: read-out: Activity
I'd be grateful if you could share measured metabolised at 1 h, 1 µM for these entries.
Answers are plain numbers, in %.

These solved cases illustrate the format of a correct answer.
[
  {
    "structure as smiles": "CCN(CC)CCNc1cc(Nc2cc(O)ccc2C)nc(-n2cnc3ccccc32)n1",
    "endpoint name": "metabolised at 1 h, 1 µM",
    "reported value": 45
  },
  {
    "structure as smiles": "Cc1ccc(O)cc1Nc1cc(OCCN2CCOCC2)nc(-n2cnc3ccccc32)n1",
    "endpoint name": "metabolised at 1 h, 1 µM",
    "reported value": 48
  },
  {
    "structure as smiles": "Cc1ccc(O)cc1Nc1cc(NCCN2CCN(C)CC2)nc(-n2cnc3ccccc32)n1",
    "endpoint name": "metabolised at 1 h, 1 µM",
    "reported value": 39
  },
  {
    "structure as smiles": "Cc1ccc(O)cc1Nc1cc(NCCCN(C)C)nc(-n2cnc3ccccc32)n1",
    "endpoint name": "metabolised at 1 h, 1 µM",
    "reported value": 48
  }
]

Alright, here's another compound for you.
Give recorded metabolised at 1 h, 1 µM. `Cc1ccc(O)cc1Nc1cc(OCCN2CCN(C)CC2)nc(-n2cnc3ccccc32)n1`
35

* * *

# Test system: Jurkat
# experimental details: Inhibition of IL2 production in Jurkat E6-1 T cells by ELISA
# test conditions: Homo sapiens
I'd be grateful if you could share measured IC50 for these entries.
Numbers only, in µM.

[
  {
    "structure as smiles": "Cc1ccc(O)cc1Nc1cc(OCCN2CCN(C)CC2)nc(-n2cnc3ccccc32)n1",
    "endpoint name": "IC50",
    "readout unit": "µM",
    "reported value": 0.4
  },
  {
    "structure as smiles": "Cc1ccc(O)cc1Nc1cc(NCCN2CCN(C)CC2)nc(-n2cnc3ccccc32)n1",
    "endpoint name": "IC50",
    "readout unit": "µM",
    "reported value": 2.28
  },
  {
    "structure as smiles": "Cc1ccc(O)cc1Nc1cc(NCCCN(C)C)nc(-n2cnc3ccccc32)n1",
    "endpoint name": "IC50",
    "readout unit": "µM",
    "reported value": 2.19
  },
  {
    "structure as smiles": "Cc1ccc(O)cc1Nc1cc(OCCN2CCOCC2)nc(-n2cnc3ccccc32)n1",
    "endpoint name": "IC50",
    "readout unit": "µM",
    "reported value": 0.054
  },
  {
    "structure as smiles": "COc1ccc(C)c(Nc2cc(OCCN3CCOCC3)nc(-n3cnc4ccccc43)n2)c1",
    "endpoint name": "IC50",
    "readout unit": "µM",
    "reported value": 1.27
  }
]

Give one value of IC50 per listed molecule.
1. Cc1ccc(O)cc1Nc1cc(CC2CCN(C)CC2)nc(-n2cnc3ccccc32)n1
2. CCN(CC)CCNc1cc(Nc2cc(O)ccc2C)nc(-n2cnc3ccccc32)n1

0.163
0.549

* * *

# subject of test: Proto-oncogene tyrosine-protein kinase Src (Homo sapiens)
# Sequence (P12931 2-536 limits assumed): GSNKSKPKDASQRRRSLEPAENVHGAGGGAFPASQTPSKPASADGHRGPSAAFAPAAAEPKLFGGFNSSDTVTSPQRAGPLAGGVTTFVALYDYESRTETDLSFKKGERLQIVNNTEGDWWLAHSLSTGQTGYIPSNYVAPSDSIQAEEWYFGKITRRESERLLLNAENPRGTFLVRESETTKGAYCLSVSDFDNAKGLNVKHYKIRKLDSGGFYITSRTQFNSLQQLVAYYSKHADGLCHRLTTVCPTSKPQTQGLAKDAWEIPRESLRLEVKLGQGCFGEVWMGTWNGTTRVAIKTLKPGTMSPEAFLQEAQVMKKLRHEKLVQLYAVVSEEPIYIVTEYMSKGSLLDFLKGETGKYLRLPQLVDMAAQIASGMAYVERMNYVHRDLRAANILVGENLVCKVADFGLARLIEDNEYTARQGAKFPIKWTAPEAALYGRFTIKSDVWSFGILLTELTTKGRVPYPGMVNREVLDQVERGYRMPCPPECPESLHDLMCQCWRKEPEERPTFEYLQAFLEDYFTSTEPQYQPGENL
# experimental details: Inhibition of human recombinant Src by ProFlour assay
endpoint name: IC50 (µM)
One number for each entry, in µM.

Give recorded IC50. `CCN(CC)CCNc1cc(Nc2cc(O)ccc2C)nc(-n2cnc3ccccc32)n1`
0.162
